- Organism: Rattus norvegicus
- Assay notes: Ratio of Ki for CRL:CD(SD)BR-COBS rat brain hippocampus 5HT1A to Ki for CRL:CD(SD)BR-COBS rat brain cortex alpha1-AR
- Type: tissue-based
Can you tell me Ratio Ki for the items I'm about to list?

Consider the following illustrative entries.
Task item: # input compound: `COc1ccccc1N1CCN(CCn2c(=O)[nH]c3[nH]c(-c4ccc(OCCOc5ccccc5)cc4)cc3c2=O)CC1` ; wanted: its Ratio Ki
Reply: > 186

Task item: # input compound: `O=c1[nH]c2[nH]c(-c3ccc(Cl)cc3)cc2c(=O)n1CCN1CCN(c2ccccc2Cl)CC1` ; wanted: its Ratio Ki
Reply: > 500

Task item: # input compound: `COc1ccccc1N1CCN(CCn2c(=O)[nH]c3cc(-c4ccc(Cl)cc4)[nH]c3c2=O)CC1` ; wanted: its Ratio Ki
Reply: > 1000

Task item: # input compound: `O=c1[nH]c2[nH]c(-c3ccc(OCCOc4ccccc4)cc3)cc2c(=O)n1CCN1CCN(c2ccccc2Cl)CC1` ; wanted: its Ratio Ki
Reply: > 79

Moving on to another compound below.
Task item: # input compound: `Cc1ccc(-c2c[nH]c3c(=O)n(CCN4CCN(c5ccccc5Cl)CC4)c(=O)[nH]c23)cc1` ; wanted: its Ratio Ki
Reply: > 2000

Each recorded value in this set is attributed to ChEMBL document CHEMBL1817545.
